Entries and their measured RBA follow.
# targetEntity: androgen receptor (Rattus norvegicus, UniProt P15207)
# Construct: from tissue; host or cells: Rat ventral prostate cytosol
# Sequence (P15207 whole entry S389L): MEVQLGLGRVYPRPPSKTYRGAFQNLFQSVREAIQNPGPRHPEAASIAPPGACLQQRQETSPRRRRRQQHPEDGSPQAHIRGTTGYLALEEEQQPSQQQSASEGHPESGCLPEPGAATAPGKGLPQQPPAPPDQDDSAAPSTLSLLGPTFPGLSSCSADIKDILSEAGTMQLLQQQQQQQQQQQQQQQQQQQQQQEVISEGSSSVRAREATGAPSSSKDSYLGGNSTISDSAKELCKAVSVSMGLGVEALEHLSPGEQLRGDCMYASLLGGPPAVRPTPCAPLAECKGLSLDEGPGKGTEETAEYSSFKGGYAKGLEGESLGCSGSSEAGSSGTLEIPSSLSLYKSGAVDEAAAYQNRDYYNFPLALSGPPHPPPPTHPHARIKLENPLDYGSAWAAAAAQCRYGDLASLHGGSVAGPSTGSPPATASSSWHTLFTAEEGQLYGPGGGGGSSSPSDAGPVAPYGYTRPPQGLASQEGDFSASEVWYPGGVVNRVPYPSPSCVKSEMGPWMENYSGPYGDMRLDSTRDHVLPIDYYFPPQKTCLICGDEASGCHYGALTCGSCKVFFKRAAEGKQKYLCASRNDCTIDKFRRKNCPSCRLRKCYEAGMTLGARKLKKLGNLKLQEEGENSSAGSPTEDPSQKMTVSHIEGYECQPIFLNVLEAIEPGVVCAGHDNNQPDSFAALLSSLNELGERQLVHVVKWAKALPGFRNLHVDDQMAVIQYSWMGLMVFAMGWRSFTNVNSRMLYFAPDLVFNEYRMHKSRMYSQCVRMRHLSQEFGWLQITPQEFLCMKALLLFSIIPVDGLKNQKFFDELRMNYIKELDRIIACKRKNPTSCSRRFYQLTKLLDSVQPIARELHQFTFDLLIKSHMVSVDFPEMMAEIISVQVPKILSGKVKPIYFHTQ
# methodSummary: Androgen receptor binding affinities
# assaySetup: relative binding affinity, androgen receptor

Sample records with RBA:
# structureAsSmiles, RBA
measured = [
    ("C[C@](O)(COc1ccc(F)cc1F)C(=O)Nc1ccc([N+](=O)[O-])c(C(F)(F)F)c1", "10.9%"),
    ("C[C@](O)(COc1ccc(Cl)c(Cl)c1)C(=O)Nc1ccc([N+](=O)[O-])c(C(F)(F)F)c1", "20.2%"),
    ("C[C@](O)(COc1c(F)c(F)c(F)c(F)c1F)C(=O)Nc1ccc([N+](=O)[O-])c(C(F)(F)F)c1", "13.3%"),
    ("C[C@](O)(COc1ccccc1F)C(=O)Nc1ccc([N+](=O)[O-])c(C(F)(F)F)c1", "5.9%"),
]

// map C[C@](O)(COc1ccc(F)c(F)c1)C(=O)Nc1ccc([N+](=O)[O-])c(C(F)(F)F)c1 to recorded RBA (system: androgen receptor (Rattus norvegicus, UniProt P15207))
17.6%

* * *

A short record of pKi observed with androgen receptor (Rattus norvegicus) follows.
Please report pKi as the negative decimal logarithm of the molar concentration, giving only the number.

Sample records with pKi:
# molecule, pKi
data = [
    ("C[C@](O)(COc1c(F)cc(F)cc1F)C(=O)Nc1ccc([N+](=O)[O-])c(C(F)(F)F)c1 [Compound 11]", 7.99),
    ("C[C@](O)(COc1cc(F)cc(F)c1F)C(=O)Nc1ccc([N+](=O)[O-])c(C(F)(F)F)c1 [Compound 6]", 8.04),
    ("C[C@](O)(COc1ccc(F)cc1F)C(=O)Nc1ccc([N+](=O)[O-])c(C(F)(F)F)c1 [Compound 5]", 8.49),
]

// map C[C@](O)(COc1ccc(F)c(F)c1F)C(=O)Nc1ccc([N+](=O)[O-])c(C(F)(F)F)c1 [Compound 3] to recorded pKi (system: androgen receptor (Rattus norvegicus))
7.95

// map C[C@](O)(COc1ccc(Cl)c(Cl)c1)C(=O)Nc1ccc([N+](=O)[O-])c(C(F)(F)F)c1 [Compound 9] to recorded pKi (system: androgen receptor (Rattus norvegicus))
9.00

// map C[C@](O)(COc1ccc(Cl)c(F)c1)C(=O)Nc1ccc([N+](=O)[O-])c(C(F)(F)F)c1 [Compound 7] to recorded pKi (system: androgen receptor (Rattus norvegicus))
8.31

// map C[C@](O)(COc1ccc(F)c(Cl)c1)C(=O)Nc1ccc([N+](=O)[O-])c(C(F)(F)F)c1 [Compound 8] to recorded pKi (system: androgen receptor (Rattus norvegicus))
7.99

// map C[C@](O)(COc1ccccc1F)C(=O)Nc1ccc([N+](=O)[O-])c(C(F)(F)F)c1 [Compound 10] to recorded pKi (system: androgen receptor (Rattus norvegicus))
8.47

* * *

Entries and their measured RBA follow.
# targetEntity: androgen receptor (Rattus norvegicus)
# Construct: from tissue; host or cells: Rat ventral prostate cytosol
# methodSummary: Androgen receptor binding affinities
# assaySetup: relative binding affinity, androgen receptor
Number only, in %; omit the unit.

Sample records with RBA:
# structureAsSmiles, u, RBA
records = [
    ("C[C@](O)(COc1cc(F)cc(F)c1F)C(=O)Nc1ccc([N+](=O)[O-])c(C(F)(F)F)c1", "%", 3.4),
    ("C[C@](O)(COc1ccc(F)c(Cl)c1)C(=O)Nc1ccc([N+](=O)[O-])c(C(F)(F)F)c1", "%", 4.3),
    ("C[C@](O)(COc1ccc(Cl)c(F)c1)C(=O)Nc1ccc([N+](=O)[O-])c(C(F)(F)F)c1", "%", 9.1),
]

# ---- query compound ----
// map C[C@](O)(COc1ccc(F)c(F)c1F)C(=O)Nc1ccc([N+](=O)[O-])c(C(F)(F)F)c1 to recorded RBA (system: androgen receptor (Rattus norvegicus))
3.1
